Target: Aromatase (Homo sapiens)
Test: Binding affinity for human placental microsome aromatase Cytochrome P450 19A1
// reported log10 of Ki per item
The common logarithm of Ki in nM is what is listed.

Record excerpt, results attached:
CCCC[C@H]1CC2C3CCC(=O)C3(C)CCC2C2(C)CCC(=O)C=C12 (stereo partly drawn)	1.08
CC12CCC3C(C[C@H](Cc4ccccc4)C4=CC(=O)CCC43C)C1CCC2=O (stereo partly drawn)	1.00
C=C[C@@H]1CC2C3CCC(=O)C3(C)CCC2C2(C)CCC(=O)C=C12 (stereo partly drawn)	0.71
CC(C)[C@H]1CC2C3CCC(=O)C3(C)CCC2C2(C)CCC(=O)C=C12 (stereo partly drawn)	1.49
CC12CCC3C(C[C@@H](Cc4ccccc4)C4=CC(=O)CCC43C)C1CCC2=O (stereo partly drawn)	1.80

input: Please report the measured log10 of Ki for CC(C)[C@@H]1CC2C3CCC(=O)C3(C)CCC2C2(C)CCC(=O)C=C12 (stereo partly drawn)
output: 1.34

input: Please report the measured log10 of Ki for CCC[C@H]1CC2C3CCC(=O)C3(C)CCC2C2(C)CCC(=O)C=C12 (stereo partly drawn)
output: 0.83

input: Please report the measured log10 of Ki for CC12CCC3C(C[C@H](c4ccccc4)C4=CC(=O)CCC43C)C1CCC2=O (stereo partly drawn)
output: 1.32

* * *

// reported pIC50 per item
Target: Aromatase (Homo sapiens)
Test: Inhibitory concentration was tested on Cytochrome P450 19A1 in human placental microsomes 20 (microg) of protein incubated for 20 min
Design: species or system Placenta
Formally, pIC50 is defined as -log10 of the concentration c, with c in mol/L.

CCC[C@H]1CC2C3CCC(=O)C3(C)CCC2C2(C)CCC(=O)C=C12 (stereo not given in full)	6.41

input: Please report the measured pIC50 for CC12CCC3C(C[C@H](Cc4ccccc4)C4=CC(=O)CCC43C)C1CCC2=O (stereo not given in full)
output: 6.18

input: Please report the measured pIC50 for CC[C@H]1CC2C3CCC(=O)C3(C)CCC2C2(C)CCC(=O)C=C12 (stereo not given in full)
output: 6.59

input: Please report the measured pIC50 for CC[C@@H]1CC2C3CCC(=O)C3(C)CCC2C2(C)CCC(=O)C=C12 (stereo not given in full)
output: 6.85

input: Please report the measured pIC50 for CCCC[C@@H]1CC2C3CCC(=O)C3(C)CCC2C2(C)CCC(=O)C=C12 (stereo not given in full)
output: 6.29

* * *

Molecular target: Aromatase (Homo sapiens)
Sequence (P11511 whole entry): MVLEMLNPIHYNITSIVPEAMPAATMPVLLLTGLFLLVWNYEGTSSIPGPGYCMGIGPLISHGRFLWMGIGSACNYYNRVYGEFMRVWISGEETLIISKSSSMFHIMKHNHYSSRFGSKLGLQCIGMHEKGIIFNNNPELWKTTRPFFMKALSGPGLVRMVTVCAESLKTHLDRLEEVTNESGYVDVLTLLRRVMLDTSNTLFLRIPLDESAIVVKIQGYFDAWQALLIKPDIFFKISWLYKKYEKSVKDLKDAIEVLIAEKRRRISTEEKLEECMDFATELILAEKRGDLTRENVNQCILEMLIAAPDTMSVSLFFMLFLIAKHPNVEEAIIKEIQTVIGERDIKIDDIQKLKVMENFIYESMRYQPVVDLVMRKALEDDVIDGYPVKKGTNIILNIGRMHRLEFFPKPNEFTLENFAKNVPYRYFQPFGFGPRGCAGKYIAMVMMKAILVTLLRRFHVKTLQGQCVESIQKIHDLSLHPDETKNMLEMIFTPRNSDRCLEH
pIC50: −log10 of the molar value.
Outcome: YES for pIC50 of at least 6; NO for anything lower.

Below are worked cases with known answers.
CCC[C@@H]1CC2C3CCC(=O)C3(C)CCC2C2(C)CCC(=O)C=C12 (stereo not given in full)	YES
C#C[C@@H]1CC2C3CCC(=O)C3(C)CCC2C2(C)CCC(=O)C=C12 (stereo not given in full)	NO

input: // inclusive: pIC50 at least 6? input: C=C[C@@H]1CC2C3CCC(=O)C3(C)CCC2C2(C)CCC(=O)C=C12 (stereo not given in full)
output: YES

input: // inclusive: pIC50 at least 6? input: C[C@H]1CC2C3CCC(=O)C3(C)CCC2C2(C)CCC(=O)C=C12 (stereo not given in full)
output: YES

input: // inclusive: pIC50 at least 6? input: CC12CCC3C(C[C@@H](Cc4ccccc4)C4=CC(=O)CCC43C)C1CCC2=O (stereo not given in full)
output: NO

The reported numbers originate from ChEMBL document CHEMBL1127822.
